Would you kindly list growth inhibition for each of these compounds?
# procedure-text: NCI Yeast Anticancer Drug Screen. Data for the sgs1 mgt1 strain (AID 161);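 further: 0% = growth of cultures given vehicle only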
# run-conditions: S. cerevisiae sgs1 mgt1 strain, at 50.0 µM, active compounds read high
Compounds without any hit were thinned out: in the full panel of roughly 79,000, 15% have a hit.
Provide only the numeric value, understood in %.

Requested field: growth inhibition. Item: CC(=O)Nc1ccc(C(C)(C)c2ccc(C)cc2)cc1
24.1

Another: CCOC(=O)CC1C(=O)N(c2nc(-c3ccc(Br)cc3)cs2)N=C1C (configuration not stated)
60.7

Another: O=C1NC(CSSCC2NC(=O)N(c3ccccc3)C2=O)C(=O)N1c1ccccc1 (configuration not stated)
93.6

Another: CCCCC(CSC#N)SC#N (configuration not stated)
97.2

Another: O=C(CCl)OCC(=O)c1ccc(-c2ccccc2)cc1
21.2

Another: CCOC(=O)C1=NNC(C(=O)c2ccccc2)C1c1ccccc1 (configuration not stated)
81.2

Another: O=[N+]([O-])c1ccc(NC(=S)N/N=C(\c2ccccc2)c2ccccn2)cc1
79.5

---

# procedure-text: NCI Yeast Anticancer Drug Screen. Data for the rad50 strain (AID 155);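 further: 0% = growth of vehicle-only cultures of the same strain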
# run-conditions: S. cerevisiae rad50 strain growth inhibition; at 5.0 µM (retest, dose inferred, filed as 0.5)
This is part of a sample that, as a whole, favours compounds with a hit. Of some 79,000 tested, about 15% had one in any assay. Calls of active or inactive are those of the source. Rule as the data show it: active = growth inhibition above about 70%; inactive = the rest.
Hello, when you answer, please use one of the following outcomes: TRUE = active, FALSE = inactive

I'd appreciate the recorded outcome for O=C(c1ccc(Cl)cc1)C1N=NCC1c1ccccc1 (stereo unspecified) from this test.
FALSE

Another: Cc1cc(O)c(C)c(C)c1N=Nc1ccccc1
FALSE

Another: C=CCOCC(C)OC(=O)C(C)C (stereo unspecified)
FALSE

Another: COc1ccccc1NC(c1ccccc1)c1ccc2cccnc2c1O (stereo unspecified)
FALSE

Another: Nc1ccccc1/C=C/c1c[nH]c2ccccc12
FALSE

Another: N#C/C(=C\NC(=S)C(N)=S)c1nc2ccccc2s1
FALSE

Another: CCOC(=O)c1cc(Cc2ccccc2)c(=O)n(C)c1-c1ccccc1
FALSE

Another: c1ccc2nc3[nH]c4ccccc4c3cc2c1
FALSE

Another: O=[N+]([O-])c1ccc(Cl)c(C(Nc2nncs2)Nc2nncs2)c1
FALSE

Another: CCCCCCCCCCCCCCCCCC(=O)OCCOCCO
FALSE

Another: OC(CN1CCCCC1)c1ccc2c(ccc3ccccc32)c1 (stereo unspecified)
FALSE

Another: C=C1C2Oc3ccccc3C1N(c1ccccc1)O2 (stereo unspecified)
FALSE

Another: COC(=O)c1ccc(NN)cc1
FALSE

Another: Cc1ccc(S(=O)(=O)CC2COC(CS(=O)(=O)c3ccc(C)cc3)CO2)cc1 (stereo unspecified)
FALSE

Another: CC1=NC(=Cc2cccc(Cl)c2)C(=O)N1n1c(-c2ccccc2)nc2ccccc2c1=O
FALSE

Another: O=Cc1nc2c3cccnc3ccc2n1Cc1ccccc1
FALSE

Another: Cc1ccc2nc(-c3ccc(N)cc3)sc2c1
FALSE

Another: CCCCCCCCCCCCCCOS(=O)(=O)O
FALSE

Another: Cc1ccccc1C(O)(c1ccccc1C)C1(O)CCN(C)CC1
FALSE

Another: CC12C(=O)OC(=O)C1C1c3ccccc3C2c2ccccc21 (stereo unspecified)
TRUE

Another: N#CCCN(C(=S)Nc1cccc(C(F)(F)F)c1)C1CCCCC1
FALSE

Another: CCN(CC)CCOc1ccc(NC(=S)Nc2ccc(OCC(C)C)cc2)cc1
FALSE

Another: CCOc1ccc2nc([NH-])sc2c1.CCOc1ccc2nc([NH-])sc2c1.CCOc1ccc2nc([NH-])sc2c1.CCOc1ccc2nc([NH-])sc2c1.[Cl][Rh][Cl]
FALSE

Another: c1ccc(-c2c[nH]c(-c3ccccc3)c2-c2ccccc2)cc1
FALSE

Another: CC(C)(C)C(=O)Nc1ccc2c(c1)C(=O)c1ccccc1C2=O
FALSE

Another: c1ccc([CH2][Sn]([CH2]c2ccccc2)([S]c2cccc3cccnc23)[S]c2cccc3cccnc23)cc1
FALSE

Another: O=C(Nc1ccccc1)OCCN=c1c2ccccc2ccc2ccccc12
FALSE

Another: CCCCCC(C)(C)N=C=S
FALSE

Another: O=C1CSC(=S)N1Cc1ccccc1Cl
FALSE

Another: CCNc1cc(SC)nc(N)n1
FALSE

Another: Oc1cc2c(cc1C(c1ccc(F)cc1)N1CCCCC1)OCO2 (stereo unspecified)
FALSE

Another: N#CCCN(CCC#N)Cc1c(O)c(O)c(CN(CCC#N)CCC#N)c2ccccc12
FALSE

Another: Cc1ccccc1C1c2c(C)cccc2C(=O)CC1CC(=O)O (stereo unspecified)
FALSE

Another: O=[N+]([O-])c1ccc(SC(=S)N2CCCCC2)c([N+](=O)[O-])c1
FALSE

Another: Cn1cnc2[nH]c(Cl)nc(=S)c21
FALSE

Another: NC(N)=Nc1ccc(Cc2ccc(N=C(N)N)cc2)cc1
FALSE

Another: CN(C)c1ccc(N=Nc2ccc(/C=C3\CCOC3=O)cc2)cc1
FALSE

Another: NCC(CS)C(=O)NC(CS)C(=O)NC(CS)C(=O)NCCNc1ccc(NCCNC(=O)C(CS)NC(=O)C(CS)NC(=O)C(CN)CS)c2c1C(=O)c1c(O)ccc(O)c1C2=O (stereo unspecified)
TRUE

Another: CC1(C)S[C@@H]2[C@H](N3C(=O)c4ccccc4C3=O)CN2[C@H]1NC(=O)N[C@@H]1N2C[C@@H](N3C(=O)c4ccccc4C3=O)[C@H]2SC1(C)C
FALSE

Another: CCC1CCCN1CCOC(=O)C(c1ccccc1)C1C=CCC1 (stereo unspecified)
FALSE

Another: COc1ccc(OC(C)=O)c2c1CCC=CC2=O
FALSE
